test system: ICR mice; test: Pulmonary toxicity (pulmonary fibrosis) in mice, intratracheal instillation; type: in vivo; conditions: 16 μg/50 μl/mouse intratracheally; sacrificed 4 weeks after instillation
In this section, each of the compounds is paired with its reported Incidence of pulmonary fibrosis, %.
Express it in %; write the number only.

Some solved entries appear below for comparison.
- compound: "Cc1c(N)nc(C(CC(N)=O)NCC(N)C(N)=O)nc1C(=O)NC(C(=O)NC(C)C(O)C(C)C(=O)NC(C(=O)NCCc1nc(-c2nc(C(=O)NCCCN(C)CCCNCc3ccc(OCc4ccccc4)c(OCc4ccccc4)c3)cs2)cs1)C(C)O)C(OC1OC(CO)C(O)C(O)C1OC1OC(CO)C(O)C(OC(N)=O)C1O)c1cnc[nH]1 (stereo not drawn) [compound 15]"
  metric-name: "Incidence of pulmonary fibrosis, %"
  observed-result: 13
- compound: "Cc1c(N)nc(C(CC(N)=O)NCC(N)C(N)=O)nc1C(=O)NC(C(=O)NC(C)C(O)C(C)C(=O)NC(C(=O)NCCc1nc(-c2nc(C(=O)NCCCN(C)CCCN(Cc3ccccc3)Cc3ccccc3)cs2)cs1)C(C)O)C(OC1OC(CO)C(O)C(O)C1OC1OC(CO)C(O)C(OC(N)=O)C1O)c1cnc[nH]1 (stereo not drawn) [compound 27]"
  metric-name: "Incidence of pulmonary fibrosis, %"
  observed-result: 22

Fill in: Incidence of pulmonary fibrosis, % of Cc1c(N)nc(C(CC(N)=O)NCC(N)C(N)=O)nc1C(=O)NC(C(=O)NC(C)C(O)C(C)C(=O)NC(C(=O)NCCc1nc(-c2nc(C(=O)NCCCN(C)CCCNCc3ccc([N+](=O)[O-])cc3)cs2)cs1)C(C)O)C(OC1OC(CO)C(O)C(O)C1OC1OC(CO)C(O)C(OC(N)=O)C1O)c1cnc[nH]1 (stereo not drawn) [MNBZ, reference compound] is ___ 89

Fill in: Incidence of pulmonary fibrosis, % of Cc1c(N)nc(C(CC(N)=O)NCC(N)C(N)=O)nc1C(=O)NC(C(=O)NC(C)C(O)C(C)C(=O)NC(C(=O)NCCc1nc(-c2nc(C(=O)NCCCNC(C)c3ccccc3)cs2)cs1)C(C)O)C(OC1OC(CO)C(O)C(O)C1OC1OC(CO)C(O)C(OC(N)=O)C1O)c1c[nH]cn1 (stereo not drawn) [PEP, reference compound] is ___ 75

Fill in: Incidence of pulmonary fibrosis, % of Cc1c(N)nc(C(CC(N)=O)NCC(N)C(N)=O)nc1C(=O)NC(C(=O)NC(C)C(O)C(C)C(=O)NC(C(=O)NCCc1nc(-c2nc(C(=O)NCCC[N+](C)(CCCN(Cc3ccccc3)Cc3ccccc3)Cc3ccccc3)cs2)cs1)C(C)O)C(OC1OC(CO)C(O)C(O)C1OC1OC(CO)C(O)C(OC(N)=O)C1O)c1cnc[nH]1 (stereo not drawn) [compound 39] is ___ 22

Fill in: Incidence of pulmonary fibrosis, % of Cc1c(N)nc(C(CC(N)=O)NCC(N)C(N)=O)nc1C(=O)NC(C(=O)NC(C)C(O)C(C)C(=O)NC(C(=O)NCCc1nc(-c2nc(C(=O)NCCCN(C)CCCNC(C)c3ccc(Cl)cc3)cs2)cs1)C(C)O)C(OC1OC(CO)C(O)C(O)C1OC1OC(CO)C(O)C(OC(N)=O)C1O)c1cnc[nH]1 (stereo not drawn) [compound 14] is ___ 57

Fill in: Incidence of pulmonary fibrosis, % of Cc1c(N)nc(C(CC(N)=O)NCC(N)C(N)=O)nc1C(=O)NC(C(=O)NC(C)C(O)C(C)C(=O)NC(C(=O)NCCc1nc(-c2nc(C(=O)NCCCN(C)CCCNCC(c3ccccc3)c3ccccc3)cs2)cs1)C(C)O)C(OC1OC(CO)C(O)C(O)C1OC1OC(CO)C(O)C(OC(N)=O)C1O)c1cnc[nH]1 (stereo not drawn) [compound 17] is ___ 22
